Where these numbers come from: PubChem BioAssay (NCI)

test system: TK-10 renal; assay: NCI-60 one-dose screen, 48 h; conditions: 10 µM unless noted
About 83,000 compounds went through this panel and 20% of them were active in at least one assay; those are over-represented in the sample as a whole. Activity calls are given as the source filed them. Rule for the calls: active = growth percent below 10; inactive = the rest.
Pick one: Y = active, N = inactive

molecule	answer label
Cc1ccc(NC(=O)CBr)cc1	N
CC(C)c1cc([N+](=O)[O-])cc([N+](=O)[O-])c1O	N
C#CC1(O)CCC(C(C)(C)C)CC1 (centres undefined)	N
COC(C(=O)C(O)C(C)O)C1Cc2cc3cc(OC4CC(OC(C)=O)C(OC5CC(O)C(OC)C(C)O5)C(C)O4)cc(O)c3c(O)c2C(=O)C1OC1CC(OC2CC(OC3CC(C)(O)C(OC(=O)C(C)C)C(C)O3)C(O)C(C)O2)C(O)C(C)O1 (centres undefined)	N
O=[N+]([O-])/C=C\c1ccc2c(c1)OCO2	N

IN: Which result was noted for this molecule in the test: CS(=N)(=O)CCC(N)C(=O)O (centres undefined)
OUT: N

IN: Which result was noted for this molecule in the test: NNc1ccccc1
OUT: N

IN: Which result was noted for this molecule in the test: O=C1C(=O)c2ccccc2-c2ccccc21
OUT: Y

IN: Which result was noted for this molecule in the test: ClCc1ccc2ccccc2n1
OUT: N
